Each entry below carries its recorded z-score.
Assay: A549 lung cancer cell viability effects, profiling panel, resazurin fluorescence, 24 h, PK04 Diversity Set (AID 1171); further: test concentration not given here
Settings: higher = more signal, called active from +8 up or from −8 down
The source made the active and inactive calls.

# compound, observed-result
rows = [
    ("CN(C)C(=O)[C@]1(Cc2ccccc2CN=[N+]=[N-])N=C(c2ccc(OCCCO)cc2)O[C@@H]1c1ccccc1CN=[N+]=[N-]", "0.113 (inactive)"),
    ("O=C1O[C@@H](c2ccccc2)[C@@H](c2ccccc2)N2[C@@H](c3ccc(OCCO)cc3)[C@]3(C(=O)Nc4ccccc43)[C@@H](C(=O)NC[C@H](O)c3ccccc3)[C@H]12", "0.496 (inactive)"),
    ("[N-]=[N+]=NCc1ccccc1C[C@@]1(C(=O)NCC(O)CO)N=C(c2ccc(OCCCO)cc2)O[C@@H]1c1ccccc1N=[N+]=[N-] (stereo partly specified)", "-3.5 (inactive)"),
    ("COc1cc2c(cc1OC)CN(C(=O)[C@H]1[C@@H]3C(=O)O[C@@H](c4ccccc4)[C@@H](c4ccccc4)N3[C@@H](c3ccc(O)cc3)[C@]13C(=O)Nc1ccc(C#CC4=CCCCC4)cc13)CC2", "-0.435 (inactive)"),
]

Q. // z-score lookup, key: COCCOC(=O)N1C(=O)[C@@]2(c3cc(C#CC4=CCCCC4)ccc31)[C@H](C(=O)Nc1nc3ccccc3s1)[C@H]1C(=O)O[C@H](c3ccccc3)[C@H](c3ccccc3)N1[C@@H]2c1ccccc1OCCO
A. 0.163 (inactive)

Q. Report z-score for O=C1OCCC/C=C\[C@H]2OC34C=CCN(Cc5ccccc5)C(=O)[C@H]3N(CCCCCCO)C(=O)[C@@H]4C12 (stereo partly specified) please.
A. 1.28 (inactive)
